Hello, the source for this data is PubChem BioAssay (NCI), in case you need it.

# System: HCC-2998 colon
# protocol: NCI-60 one-dose screen, 48 h
# reported.conditions: 10 µM unless noted
Compounds without any hit were thinned out: in the full panel of roughly 83,000, 20% have a hit. Calls of active or inactive are those of the source. The calls were made as follows: active = growth percent below 10; inactive = the rest.
Write down the outcome that applies. Available outcomes: active, inactive

The examples below pair each entry with its known result.
Lookup: Which outcome was assigned to NC(=S)Nc1cccc(O)c1 in this test?
Found: inactive

Lookup: Kindly provide the recorded test outcome for the following compound: Cc1c(Cl)cc(-n2c(=O)c3ccccc3c3ccccc3c2=O)cc1Cl
Found: inactive

Lookup: Which result was noted for this compound in the test: CC(C)=C[C@@H]1c2c(c3ccccc3n(C)c2=O)O[C@H]2c3c(c4ccccc4n(C)c3=O)OC(C)(C)[C@@H]12
Found: inactive

Lookup: Just curious, what result did N#Cc1c(-c2cccc(Cl)c2)cc(-c2cccc(F)c2)[nH]c1=O get here?
Found: inactive

Lookup: Recorded call for COC(=O)[C@]12CC[C@@H](C)[C@H](C)[C@@H]1C1=CC[C@@H]3[C@@]4(C)C(C=O)=C[C@@](C)(COC(C)=O)[C@@H]4C(=O)C[C@@]3(C)[C@]1(C)CC2 ?
Found: inactive

---
Lookup: # fetch the recorded call for CC1CC2Oc3ccc(Cl)cc3C(=O)N2O1 (centres undefined) here
Found: inactive

Lookup: Field: outcome | Entry: O=[N+]([O-])c1ccc(-c2cc(-c3ccc(Nc4nc(Nc5ccc(Cl)cc5)nc(Nc5ccc(Cl)cc5)n4)cc3)no2)cc1
Found: inactive

Lookup: # lookup: test call for Cn1cc(-c2csc(-c3cccc(F)c3)n2)c2cccnc21
Found: active

Lookup: # outcome recorded in this test, key = COc1ccc(Nc2nnc(SCc3ccccc3F)s2)cc1
Found: inactive

###

# Tested on: HT29 colon
# protocol: NCI-60 one-dose screen, 48 h (100 = growth as untreated, 0 = no growth, -100 = all killed)
# reported.conditions: 10 µM unless noted
The panel holds about 83,000 compounds, 20% with a hit somewhere; the sample as a whole holds those more often.
Reported growth is given for each of the following molecules.
Respond numerically; units are % and should not be typed.

Some solved entries appear below for comparison.
Lookup: # query: growth of entry COC(=O)/C=C1\S/C(=N\NS(=O)(=O)c2ccc(C)cc2)N(c2ccccc2)C1=O
Found: 117

Lookup: Fill in: growth of COc1cccc(-c2nn(-c3ccccc3)cc2-c2ccnc(NCCCNC(=O)Nc3ccc(Cl)c(Cl)c3)c2)c1 is ___
Found: -36.4

Lookup: Record request: growth value, item CC1SC(c2ccc(OCc3ccccc3)cc2)N(NC(=O)C(O)(c2ccccc2)c2ccccc2)C1=O (stereo not drawn)
Found: 38.1

Lookup: Fill in the blank: the reported growth of CCn1c(C)nc2cc(C(N)=O)ccc21 is ____.
Found: 98.7

New cases:
Lookup: State the recorded growth for this entry: O=C(Nc1cccc2c(O)c(N=Nc3ccc(S(=O)(=O)Nc4nccs4)cc3)cc(N=Nc3ccc(S(=O)(=O)Nc4nccs4)cc3)c12)C(Cl)Cl
Found: 62.8

Lookup: What does the record list as growth for COc1cc(C(=O)/C=C/c2c(-c3ccc(F)cc3)nc3sc(C)cn23)cc(OC)c1OC ?
Found: 41.5

Lookup: Field request: growth | item: N#Cc1c(N)nc(NCCO)nc1-c1ccc(F)cc1
Found: 95.9

Lookup: Using the record for NNC(=O)c1nc(N)n(-c2ccc(S(N)(=O)=O)cc2)n1 , report its growth.
Found: 99.9

Lookup: Which growth reading was recorded for the molecule COc1ccc(C(=O)Nn2c(NCC(=O)N3c4ccccc4Sc4ccccc43)nnc2-c2ccc(O)cc2)cc1 ?
Found: 98.2

###

Some molecules, each annotated with its measured growth.
# System: NCI-H322M lung
# protocol: NCI-60 one-dose screen, 48 h (100 = growth as untreated, 0 = no growth, -100 = all killed)
# reported.conditions: 10 µM unless noted
Compounds without any hit were thinned out: in the full panel of roughly 83,000, 20% have a hit.
Report the figure in % without appending any unit label.

Lookup: Tell me the measured growth of COc1nc(N(C)O)nc(N(C)O)n1 , please.
Found: 37.7

Lookup: What measured growth goes with COc1cccc(-c2nn(-c3ccccc3)cc2-c2ccnc(NCCCNC(=O)c3cccc(C(F)(F)F)c3)c2)c1 ?
Found: 75.3

Lookup: Entry Cc1cc(NCc2cc(Nc3ccnc4cc(Cl)ccc34)ccc2F)nc(Cl)n1 has what growth?
Found: 71.9

Lookup: Value lookup for growth; key = Cc1cc(NCc2cc(Nc3ccnc4cc(Cl)ccc34)ccc2F)nc(N2CCN(C)CC2)n1
Found: 33.8

Now consider a different molecule.
Lookup: Consider the molecule COc1ccc(C2=NN(C(=O)c3cc(OC)c(OC)c(OC)c3)C(c3ccc(Cl)cc3)C2)cc1OC (stereo not given) and give its measured growth.
Found: 55.7

###

# Test system: UACC-62 melanoma
# protocol: NCI-60 one-dose screen, 48 h
# reported.conditions: 10 µM unless noted
# Description: Growth inhibition of the UACC-62 human tumor cell line is measured as a screen for anti-cancer activity. Cells are grown in 96 well plates and exposed to the test compound for 48 hours. Compounds are tested at a single concentration, which is 10^-5 M for most compounds. The reported endpoint is percent growth (GI% or GIPRCNT), where numbers from 0 - 100% represent growth inhibition, and numbers from -100% - 0 represent cell death. For example, a value of 40 represents 60% growth inhibition. […]
Compounds without any hit were thinned out: in the full panel of roughly 83,000, 20% have a hit. Calls of active or inactive are those of the source. How the source made its calls: active means growth percent below 10; inactive means the rest.
Please answer using one outcome listed in active, inactive

Please review the following examples before continuing.
Lookup: Assay result, entry COc1ccc(-c2nc3c(c(=O)n2C(C)=O)C(c2ccc(Cl)cc2)c2sc4c(Cl)cccc4c2O3)cc1 (centres undefined) — outcome?
Found: active

Lookup: Recorded call for CC1=C([Se]CC(OC(=O)[C@@H](CO)NC(=O)OC(C)(C)C)C(=O)NC(C)(C)C)C(=O)c2ccccc2C1=O (some centres undefined) ?
Found: active

Lookup: Give the logged outcome of this assay for the following molecule: Cc1c(C)c2c(c(C)c1OCC(=O)O)CC[C@@](C)(CCC[C@@H](C)CCC[C@@H](C)CCCC(C)C)O2
Found: active

Lookup: Look up the recorded call for CCOC(=O)/C=C/c1cc2cc(-c3csc4ccccc34)ccc2[nH]1 in this test.
Found: inactive

Lookup: Test call for this molecule, please: COc1ccccc1NC(=O)N/C(N)=N/c1nc2ccccc2s1
Found: inactive

---
Lookup: I'd appreciate the recorded outcome for Cc1ccc(-n2c(-c3ccccc3)c(-c3ccccc3)c3c(SCC(=O)n4[nH]c(N)cc4=O)ncnc32)cc1 from this test.
Found: inactive

Lookup: # outcome recorded in this test, key = CCCCOc1nc2ccccc2cc1C1CNC(=O)c2ccccc2N1 (centres undefined)
Found: inactive

Lookup: // return assay outcome for COc1ccc(N=C(c2ccccc2)C2C(=O)c3ccccc3C2=O)cc1
Found: inactive

Lookup: Query: recorded result category for c1c[nH]c(CNC2CCCCC2)c1 in this test
Found: inactive

###

# System: HT29 colon
# protocol: NCI-60 one-dose screen, 48 h (100 = growth as untreated, 0 = no growth, -100 = all killed)
# reported.conditions: 10 µM unless noted
# Protocol: Growth inhibition of the HT29 human tumor cell line is measured as a screen for anti-cancer activity. Cells are grown in 96 well plates and exposed to the test compound for 48 hours. Compounds are tested at a single concentration, which is 10^-5 M for most compounds. The reported endpoint is percent growth (GI% or GIPRCNT), where numbers from 0 - 100% represent growth inhibition, and numbers from -100% - 0 represent cell death. For example, a value of 40 represents 60% growth inhibition. […]
The panel holds about 83,000 compounds, 20% with a hit somewhere; the sample as a whole holds those more often.
Listing: growth of selected compounds
Number in %, nothing else.

Consider the following illustrative entries.
Lookup: Would you mind telling me what growth value was observed for COc1cccc(-c2nn(-c3ccccc3)cc2-c2ccnc(NCCNC(=O)c3ccccc3)c2)c1 ?
Found: 15.9

Lookup: Sample O=C(CCCCCCN1CC(=O)N2[C@@H](c3ccccc3Cl)c3[nH]c4ccccc4c3C[C@H]2C1=O)NO — what was its growth?
Found: 57.6

Lookup: Report growth for CC(=O)N1N=C(c2ccc(Nc3nc(Nc4ccc(F)cc4)nc(Nc4ccc(F)cc4)n3)cc2)CC1c1cccc([N+](=O)[O-])c1 (centres undefined) please.
Found: 48.5

---
Lookup: growth for N#Cc1c(-c2cccc(Cl)c2)cc(-c2cccc(Cl)c2)[nH]c1=O ?
Found: 114

###

# System: COLO 205 colon
# protocol: NCI-60 one-dose screen, 48 h
# reported.conditions: 10 µM unless noted
Compounds without any hit were thinned out: in the full panel of roughly 83,000, 20% have a hit. Activity calls are given as the source filed them. The calls were made as follows: active = growth percent below 10; inactive = the rest.
Select the correct class. Options are active, inactive and nothing else.

Lookup: Call for entry CC(=O)c1ccc(NCC(=O)Nc2ccccn2)cc1 :
Found: inactive

Lookup: Kindly provide the recorded test outcome for the following compound: COc1ccc2oc3c(C)c4c(c(C)c3c2c1)C(=O)N(Cc1ccccc1)C4=O
Found: inactive

Lookup: For O=C(Nc1ccc(-n2cc(-c3ccncc3)c(-c3ccc(Cl)c(O)c3)n2)cc1)N1CCOCC1 , which call appears in the assay record?
Found: inactive

Lookup: Record lookup: outcome of this test for COc1ccc(NC(=O)CSc2nc(C)c(C(C)=O)n2-c2ccc([N+](=O)[O-])cc2)cc1 ?
Found: inactive
